measurement-protocol: Pharmacokinetic profile of IUdR (20 mg/kg) with and without Tipiracil in rats following single oral administration
Type: in vivo, male Sprague-Dawley rats
condition-label: male, Sprague-Dawley, rat, plasma, po, 20 mg/kg, single oral dose, PO-20 (Compound A) alone or + 7.9 (Compound B) mg/kg, group mean, read-out: AUC(0-t) of Compound A, Mean
endpoint-name: AUC(0-t) (ng·h/mL)
Expressed in ng·h/mL, but write only the number.

**Q:** For O=c1[nH]c(=O)n([C@H]2C[C@H](O)[C@@H](CO)O2)cc1I [Compound A, 5-iodo-2′-deoxyuridine] , what is its reported AUC(0-t)?
**A:** 40.3

* * *

measurement-protocol: Pharmacokinetic profile of IUdR (100 mg/kg) with and without Tipiracil in rats following single oral administration
Type: in vivo, male Sprague-Dawley rats
condition-label: male, Sprague-Dawley, rat, plasma, po, 100 mg/kg, single oral dose, Example 1, sub-heading prints PO-20 (Compound A) alone or + 7.9 (Compound B) mg/kg, individual animals
endpoint-name: AUC(0-t) (ng·h/mL)
Expressed in ng·h/mL, but write only the number.

**Q:** For O=c1[nH]c(=O)n([C@H]2C[C@H](O)[C@@H](CO)O2)cc1I , what is its reported AUC(0-t)?
**A:** 3320

* * *

measurement-protocol: Pharmacokinetic profile of IUdR (20 mg/kg) with and without Tipiracil in rats following single oral administration
Assay type: in vivo, male Sprague-Dawley rats
condition-label: male, Sprague-Dawley, rat, plasma, oral, 20 mg/kg, PO-20 mg/kg Compound A alone or + 7.9 mg/kg Compound B, 0.5 hr, individual animals, LLOQ 5 ng/mL, read-out: Plasma Concentration of Compound A
endpoint-name: concentration at 0.5 hr (ng/mL)
Expressed in ng/mL, but write only the number.

**Q:** For O=c1[nH]c(=O)n([C@H]2C[C@H](O)[C@@H](CO)O2)cc1I [Compound A, 5-iodo-2′-deoxyuridine] , what is its reported concentration at 0.5 hr?
**A:** 52.5

* * *

measurement-protocol: Pharmacokinetic profile of IUdR (100 mg/kg) with and without Tipiracil in rats following single oral administration
Format: in vivo, male Sprague-Dawley rats
condition-label: male, Sprague-Dawley, rat, plasma, oral, 100 mg/kg, PO-100 mg/kg Compound A alone or + 7.9 mg/kg Compound B, 2 hr, individual animals, LLOQ 10 ng/mL, read-out: Plasma Concentration of Compound A
endpoint-name: concentration at 2 hr (ng/mL)
Expressed in ng/mL, but write only the number.

**Q:** For O=c1[nH]c(=O)n([C@H]2C[C@H](O)[C@@H](CO)O2)cc1I , what is its reported concentration at 2 hr?
**A:** 774
